Test system: H358
Assay: cells
Parameters: species or system panel of lung tumour and stromal cell lines; CellTiter-Glo luminescent cell viability, 2D monolayer, 3000 cells per well in 96-well plate, vehicle-normalised
Settings: Homo sapiens, NCI-H358; viability, 72 h
Result type: EC50 (µM)

molecule="NC(=O)c1ncn([C@@H]2O[C@H](CO)[C@@H](O)[C@H]2O)c1N [AICAR]" experimental_system=H358 result_value=1280

###

Test system: PC9
Experiment: cells
Set-up: species or system panel of lung tumour and stromal cell lines; CellTiter-Glo luminescent cell viability, 2D monolayer, 3000 cells per well in 96-well plate, vehicle-normalised
Conditions: Homo sapiens, PC-9; viability, 72 h
pEC50: −log10 of the molar value.
Result type: pEC50

compound="NC(=O)c1ncn([C@@H]2O[C@H](CO)[C@@H](O)[C@H]2O)c1N [AICAR]" result_type=pEC50 result_value=3.52

###

Tested on: HCC827
Assay: cells
Parameters: species or system panel of lung tumour and stromal cell lines; CellTiter-Glo luminescent cell viability, 2D monolayer, 3000 cells per well in 96-well plate, vehicle-normalised
Conditions: Homo sapiens, HCC827; viability, 72 h
pEC50: −log10 of the molar value.
Result type: pEC50

line_notation=NC(=O)c1ncn([C@@H]2O[C@H](CO)[C@@H](O)[C@H]2O)c1N result_type=pEC50 result_value=3.06

###

System: NR8383
Experiment: in vitro
Design: species or system panel of lung tumour and stromal cell lines; CellTiter-Glo luminescent cell viability, 2D monolayer, 3000 cells per well in 96-well plate, vehicle-normalised
Settings: viability, 72 h; given as EC50; inhibitor
Result type: CC50 (µM)

line_notation=NC(=O)c1ncn([C@@H]2O[C@H](CO)[C@@H](O)[C@H]2O)c1N result_type=CC50 unit_of_measurement=µM result_value=1110

###

Experiment: in vitro
Set-up: species or system panel of lung tumour and stromal cell lines; CellTiter-Glo luminescent cell viability, 2D monolayer, 3000 cells per well in 96-well plate, vehicle-normalised
Conditions: panel of lung tumour and stromal cell lines, EC50 (mM), viability, given as EC50
Result type: CC50 at 72 h

line_notation=NC(=O)c1ncn([C@@H]2O[C@H](CO)[C@@H](O)[C@H]2O)c1N result_type="CC50 at 72 h" result_value="1.03 mM"
